runDescription: GHS categories as the set defines them, by LD50: 1 up to 5, 2 up to 50, 3 up to 300, 4 up to 2000, 5 above 2000 mg/kg
runParameters: rat; in vivo; po
reportedEndpoint: GHS category
Numbers only.

As a guide, the following entries are already answered.
[[record]]
compound = "NCCCC[C@H](N[C@@H](CCc1ccccc1)C(=O)O)C(=O)N1CCC[C@H]1C(=O)O"
valuemeasured = 5

[[record]]
compound = "CCCCCCCCCCCCCCCCCC(=O)OCCOC(=O)CCCCCCCCCCCCCCCCC"
valuemeasured = 5

[[record]]
compound = "NC(=O)Oc1ccccc1C(=O)Oc1cc(Cl)ccc1Cl"
valuemeasured = 5

[[record]]
compound = "COc1ccc(C(=O)NCc2ccc(OCCN(C)C)cc2)cc1OC"
valuemeasured = 5


For each listed entry, give its GHS category.
1. Oc1cc(O)c2c(c1)O[C@H](c1ccc(O)c(O)c1)[C@@H](O)C2
2. Cc1ccc(OC(=O)c2ccccc2OC(N)=O)cc1

5
5

# return GHS category for each item in the list
1. CCC1COC(Cn2ccnc2)(c2cc3cc(Cl)cc(Cl)c3o2)O1 (centres undefined)
2. CC(C)OC(=O)C(C)N(C(=O)c1ccccc1)c1ccc(F)c(Cl)c1 (centres undefined)
3. CC(C)(c1ccc(OP(=O)(Oc2ccccc2)Oc2ccccc2)cc1)c1ccc(OP(=O)(Oc2ccccc2)Oc2ccccc2)cc1
4. CC(C)c1cc(C(C)C)c(N)c(C(C)C)c1N
5. COc1cc2nc(N3CCN(C(=O)CC(C)O)CC3)nc(N)c2cc1OC (centres undefined)
6. CCCCCCCCC(=O)O
7. CNc1nc(Nc2ccc(C=Cc3ccc(Nc4nc(NC)nc(N(CCO)CCO)n4)cc3S(=O)(=O)O)c(S(=O)(=O)O)c2)nc(N(CCO)CCO)n1

1: 4; 2: 5; 3: 5; 4: 4; 5: 5; 6: 5; 7: 5

# map each compound to its GHS category
1. Nc1c(OCCOC(=O)Oc2ccccc2)cc(O)c2c1C(=O)c1ccccc1C2=O
2. NC(=O)Oc1ccc(Cl)cc1C(=O)Oc1ccc(Cl)cc1Cl
3. C=C[Si](C)(C)O[Si](O[Si](C)(C)C=C)(O[Si](C)(C)C=C)O[Si](C)(C)C=C
4. CCOC(=O)CCCCC(=O)OCC
5. Cc1ccc(S(=O)(=O)NCCCCCC(=O)O)cc1
6. CC(C)=CCOc1ccc(/C=C/C(=O)c2ccc(OCC=C(C)C)cc2OCC(=O)O)cc1
7. CCOC(=O)C1CCC(C(=O)OCC)CC1 (centres undefined)
8. C=C(C)C(=O)OCCOCCOCCCC

5
5
5
4
5
5
5
5
